In this section, each of the compounds is paired with its reported 5HT1A Function Imax.
# assay-target: cloned human 5HT1A receptors (Homo sapiens, UniProt P08908)
# Construct: expressed in transfected cells
# Sequence (P08908 1-422): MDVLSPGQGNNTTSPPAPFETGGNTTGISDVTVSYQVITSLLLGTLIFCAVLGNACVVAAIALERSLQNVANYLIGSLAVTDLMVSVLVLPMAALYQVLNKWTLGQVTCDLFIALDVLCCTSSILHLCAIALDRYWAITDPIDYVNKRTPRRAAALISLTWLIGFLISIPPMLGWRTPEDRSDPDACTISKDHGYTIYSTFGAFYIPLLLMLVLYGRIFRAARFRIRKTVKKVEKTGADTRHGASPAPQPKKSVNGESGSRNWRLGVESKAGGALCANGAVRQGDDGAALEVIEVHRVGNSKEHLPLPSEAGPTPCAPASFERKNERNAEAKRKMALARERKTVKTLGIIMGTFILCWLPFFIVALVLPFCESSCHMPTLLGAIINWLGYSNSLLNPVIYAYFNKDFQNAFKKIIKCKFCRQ
# test-description: 35S-GTPγS binding assay, 5HT1A antagonist activity
# Assay type: biochemical
# run-parameters: maximum inhibitory effect, vs 8-OH-DPAT, unit assumed

| molecule-smiles | 5HT1A Function Imax, % |
| --- | --- |
| Cc1ccc2c3c(ccc2n1)OC[C@H](CN1CCN(c2cccc(C)c2C)CC1)O3 | 98 |
| COc1ccccc1N1CCN(C[C@H]2COc3ccc4nc(C)ccc4c3O2)CC1 | 87 |
| Cc1ccc2c3c(ccc2n1)OC[C@H](CN1CCN(c2ccc4cc([N+](=O)[O-])ccc4n2)CC1)O3 | 70 |
| Cc1ccc2c3c(ccc2n1)OC[C@H](CN1CCN(c2ccc4cc(Br)ccc4n2)CC1)O3 | 82 |
| Cc1ccc2c3c(ccc2n1)OC[C@H](CN1CCN(c2ccc4ccccc4n2)C[C@@H]1C)O3 | 90 |
| Cc1ccc2c3c(ccc2n1)OC[C@H](CN1CCN(c2ccc(Cl)cc2)CC1)O3 | 26 |
| Cc1ccc2c3c(ccc2n1)OC[C@H](CN1CCN(c2ccc(C)c(C)c2)CC1)O3 | 84 |
| Cc1ccc2c3c(ccc2n1)OC[C@H](CN1CCN(c2ccc4ccccc4c2)CC1)O3 | 76 |
